Measured values drawn from PubChem BioAssay (NCATS) for this set.

- assay-remarks: qHTS of pediatric cancer cell lines to identify multiple opportunities for drug repurposing: Primary screen for Saos-2 cells (AID 1347097); further: nearly all actives have a fitted effect of over 40% in size; further: potency means the concentration at half of the fitted maximal effect
- condition-parameters: Saos-2 viability, CellTiter-Glo ATP luminescence, 48 h; series mostly up to 46 µM
Inconclusive results are not listed. Active and inactive are the calls of the source. The call rests on the fitted dose curve; in most records, active means well fitted cell-killing curve with a large enough effect; inconclusive means small, poorly fitted or top-dose-only effect; inactive means no such curve, though single readings can be large or run the other way.

compound: CC1=NS(=O)(=O)c2cc(Cl)ccc2N1
Potency: inactive

compound: NC(N)=NC(=O)Cc1c(Cl)cccc1Cl
Potency: inactive

compound: COCC(=O)O[C@]1(CCN(C)CCCc2nc3ccccc3[nH]2)CCc2cc(F)ccc2[C@@H]1C(C)C
Potency: 26.6 µM (active)

compound: CCN(CC)CCNC(=O)c1cc(S(C)(=O)=O)ccc1OC
Potency: inactive

compound: CNCCC(Oc1ccccc1OC)c1ccccc1 (stereo unspecified)
Potency: inactive

compound: CCn1ccnc1CC1COc2ccccc2O1 (stereo unspecified)
Potency: inactive

compound: CCNC(=O)N1CCN(CCCC(c2ccc(F)cc2)c2ccc(F)cc2)CC1
Potency: inactive

compound: CN(C)CCN(Cc1cccs1)c1ccccn1
Potency: inactive

compound: CC(C)COCC(CN(Cc1ccccc1)c1ccccc1)N1CCCC1 (stereo unspecified)
Potency: 26.6 µM (active)

compound: Cc1cccc(C)c1NC(=O)C(C)N (stereo unspecified)
Potency: inactive

compound: CN(C)[C@@H]1C(=O)C(C(N)=O)=C(O)[C@@]2(O)C(=O)C3=C(O)c4c(O)ccc(Cl)c4[C@@H](O)[C@H]3C[C@@H]12
Potency: inactive

---

- System: Dd2
- assay-remarks: qHTS profiling for inhibitors of Plasmodium falciparum proliferation (AID 504749); further: nearly all actives have a fitted effect of over 60% in size
- condition-parameters: P. falciparum in erythrocytes, SYBR Green DNA, 72 h; series mostly up to 28.7 µM
Inconclusive results are not listed. Active and inactive are the calls of the source. Calls come from the whole dose curve; as a rule, active = well fitted inhibition curve with a large enough effect; inconclusive = small, poorly fitted or top-dose-only effect; inactive = flat fitted curve, though single readings scatter.
Classes used: yes = active, no = inactive

molecule: C[n+]1cc2c3c(ccc2c2ccc4cc5c(cc4c21)OCO5)OCO3
class-name: no
//
molecule: Cc1scc2c1N(C(=O)CN1CCN(C)CC1)c1ccccc1NC2=O
class-name: no
//
molecule: CC(N=C(NC#N)Nc1ccncc1)C(C)(C)C (configuration not stated)
class-name: no
//
molecule: CC(C)(Oc1ccc(CCNC(=O)c2ccc(Cl)cc2)cc1)C(=O)O
class-name: no
//
molecule: O=C(CCNNC(=O)c1ccncc1)NCc1ccccc1
class-name: no
//
molecule: CN1CCN(C2=Nc3ccccc3Oc3ccc(Cl)cc32)CC1
class-name: no
//
molecule: C=CCc1ccccc1OCC(O)CNC(C)C (configuration not stated)
class-name: yes
//
molecule: CC(=O)Oc1cc(C(C)C)c(OCCN(C)C)cc1C
class-name: no
//
molecule: CN(C)CCOC(=O)COc1ccc(Cl)cc1
class-name: no
//
molecule: CCn1ccnc1CC1COc2ccccc2O1 (configuration not stated)
class-name: no
//
molecule: Cc1nnc(SCC2=C(C(=O)O)N3C(=O)[C@@H](NC(=O)Cn4cnnn4)[C@H]3SC2)s1
class-name: no
//
molecule: Cc1nc2c([nH]1)c(=O)n(C)c(=O)n2Cc1ccco1
class-name: no

---

- assay-remarks: Cytometric Cell-Based qHTS for Inhibitors of the mTORC1 Signaling Pathway in MEF (Tsc2-/-, p53-/-) Cells (AID 2660);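 further: Tsc2 and p53 null MEFs carrying empty vector with compound for 24 h; percent of cells above a phospho-rpS6 to PI ratio cutoff in each well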
- condition-parameters: mTORC1 pathway cytometry; series mostly up to 38.3 µM
Records with an inconclusive call do not appear. Active and inactive are the calls of the source. Calls come from the whole dose curve; as a rule, active = well fitted curve in the direction sought with a large enough effect; inconclusive = small, poorly fitted or top-dose-only effect, or another doubt; inactive = no such curve, though single readings can be large or run the other way.
measurement-name: outcome

compound: Cc1nc2c([nH]1)c(=O)n(C)c(=O)n2Cc1ccco1
measurement-name: outcome
test-value: inactive
//
compound: C[C@]12CCC(=O)C=C1CC[C@@H]1[C@@H]2C(=O)C[C@@]2(C)[C@H]1CC[C@]2(O)C(=O)CO
measurement-name: outcome
test-value: inactive
//
compound: CCn1nc(C(=O)O)c(=O)c2cc3c(cc21)OCO3
measurement-name: outcome
test-value: inactive
//
compound: CN(C)C(=O)Oc1cccc([N+](C)(C)C)c1
measurement-name: outcome
test-value: inactive
//
compound: NC(N)=N/N=C/c1c(Cl)cccc1Cl
measurement-name: outcome
test-value: inactive
//
compound: CCC(=O)c1ccc2c(c1)N(CCCN(C)C)c1ccccc1S2
measurement-name: outcome
test-value: inactive
//
compound: CNCCC(Oc1ccccc1OC)c1ccccc1 (stereo unspecified)
measurement-name: outcome
test-value: inactive
//
compound: COc1ccc([C@@H]2Sc3ccccc3N(CCN(C)C)C(=O)[C@@H]2OC(C)=O)cc1
measurement-name: outcome
test-value: inactive
//
compound: CO[C@@]1(NC(=O)CSCC#N)C(=O)N2C(C(=O)O)=C(CSc3nnnn3C)CS[C@@H]21
measurement-name: outcome
test-value: inactive
//
compound: CCn1cc(C(=O)O)c(=O)c2cc3c(cc21)OCO3
measurement-name: outcome
test-value: inactive
//
compound: CC(C)(C)NCC(O)c1cc(O)cc(O)c1 (stereo unspecified)
measurement-name: outcome
test-value: inactive
